Origin of measurements: patent US7022736B2

Biological target: HCV RdRp (NS5B RNA-dependent RNA polymerase) (Hepatitis C virus genotype 1b, UniProt P26663)
Construct: The HCV NS5B protein is the viral RdRp; made in house; host or cells: insect cells infected with recombinant baculovirus
Sequence (P26663 2420-3010): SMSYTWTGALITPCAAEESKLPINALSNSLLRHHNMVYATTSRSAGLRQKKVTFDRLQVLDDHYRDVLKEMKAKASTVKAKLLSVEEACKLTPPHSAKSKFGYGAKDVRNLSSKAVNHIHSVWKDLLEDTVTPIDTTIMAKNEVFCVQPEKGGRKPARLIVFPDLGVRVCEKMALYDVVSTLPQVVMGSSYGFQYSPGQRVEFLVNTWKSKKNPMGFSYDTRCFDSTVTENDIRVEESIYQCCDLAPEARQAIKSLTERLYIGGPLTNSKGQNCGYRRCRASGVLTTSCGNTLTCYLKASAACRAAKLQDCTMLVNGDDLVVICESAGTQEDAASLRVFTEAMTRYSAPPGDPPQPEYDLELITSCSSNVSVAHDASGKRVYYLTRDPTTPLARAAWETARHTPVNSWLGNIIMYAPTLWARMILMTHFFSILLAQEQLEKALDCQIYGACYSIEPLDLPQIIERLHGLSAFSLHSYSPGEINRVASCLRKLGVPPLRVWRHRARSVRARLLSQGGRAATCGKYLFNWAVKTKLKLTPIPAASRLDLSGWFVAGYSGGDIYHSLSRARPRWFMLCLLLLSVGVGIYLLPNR
Experiment: Inhibition of hepatitis C virus RdRp (poly(A)/oligo(U), [3H]UTP incorporation)
Type: biochemical
Details: Tables I-VIII; 20 nM NS5B, 1 hour at 22° C.; read-out: IC 50 (μM), HCV-polymerase
Endpoint Name: IC50 (µM)
Provide the reading as a plain figure in µM.

Input: // Input: Cc1ccc(-c2sccc2C(=O)C=C(O)C(=O)O)cc1 [Example 226] . Output its IC50 only.
Output: 17

Input: Specify reported IC50 for the compound shown: O=C(O)C(O)=CC(=O)c1cccc(OCc2cccc[n+]2[O-])c1 [Example 105]
Output: 13.7

Input: State its IC50: O=C(O)C(O)=CC(=O)c1ccc(Cc2ccc(F)cc2)s1 [Example 206]
Output: 65

Input: Give IC50 for O=C(O)C(O)=CC(=O)c1ccsc1Cc1ccc(Cl)cc1 [Example 231]
Output: 9.4

Input: For the compound O=C(O)C(O)=CC(=O)c1cccc(NS(=O)(=O)c2ccc(F)cc2Cl)c1 [Example 138] , give its measured IC50 value.
Output: 1.1

Input: Determine its reported IC50: Cc1cc(S(=O)(=O)Nc2cccc(C(=O)C=C(O)C(=O)O)c2)c(C)cc1Cl [Example 147]
Output: 1.3

Input: Please supply the value of reported IC50 for the item O=C(NCCc1ccccc1)Nc1cccc(C(=O)C=C(O)C(=O)O)c1 [Example 121]
Output: 4

Input: Dear colleague, please send me the reported IC50 for O=C(O)C(O)=CC(=O)c1sccc1Sc1cccc(F)c1 [Example 213] when you can.
Output: 5.9

Input: Write down IC50 measured for item O=C(O)C(O)=CC(=O)c1ccccc1OCC1CCCCC1 [Example 9]
Output: 51

====

Biological target: HCV RdRp (NS5B RNA-dependent RNA polymerase) (Hepatitis C virus genotype 1b, UniProt P26663)
Construct: The HCV NS5B protein is the viral RdRp; made in house; host or cells: insect cells infected with recombinant baculovirus
Experiment: Inhibition of hepatitis C virus RdRp (poly(A)/oligo(U), [3H]UTP incorporation)
Format: biochemical
Details: Tables I-VIII; 20 nM NS5B, 1 hour at 22° C.; read-out: IC 50 (μM), HCV-polymerase
Endpoint Name: log10 IC50 (log10 of the value in µM)
Note: values are log10 of IC50 expressed in µM.

Input: Give the reported log10 IC50 for this molecule. `N#Cc1cccc(Cl)c1COc1cccc(C(=O)C=C(O)C(=O)O)c1`
Output: -0.85

Input: Give the measured log10 IC50 for `CCCSc1ccccc1C(=O)C=C(O)C(=O)O`
Output: 0.98

Input: Output log10 IC50 of `O=C(O)C(O)=CC(=O)C1(c2ccccc2)CCN(S(=O)(=O)c2cccc(Cl)c2)CC1`
Output: 1.26

Input: Supply reported log10 IC50 belonging to this molecule: `Cc1csc2sc(C(=O)C=C(O)C(=O)O)c(C)c12`
Output: 1.30

Input: Respond only with log10 IC50 recorded for `O=C(O)C(O)=CC(=O)c1cccn1Cc1ccccc1F`
Output: 1.48

Input: Tell us which log10 IC50 value is on record for `O=C(O)C(O)=CC(=O)c1cc(-c2cccnc2)cs1`
Output: 1.04

Input: For the molecule `C=CCOc1cccc(C(=O)C=C(O)C(=O)O)c1` , give its measured log10 IC50 value.
Output: 1.23

Input: Identify measured log10 IC50 corresponding to `O=C(Nc1ccccc1)Nc1cccc(C(=O)C=C(O)C(=O)O)c1`
Output: 0.48

Input: Provide log10 IC50 value for the following molecule: `O=C(O)C(O)=CC(=O)c1cc(Cl)sc1Cl`
Output: 1.70

Input: Please report log10 IC50 for the following molecule: `O=C(O)CCCOc1ccccc1C(=O)C=C(O)C(=O)O`
Output: 0.45

Input: State its log10 IC50 for this molecule: `CCCCCCOc1cccc(C(=O)C=C(O)C(=O)O)c1`
Output: 1.18

Input: Query log10 IC50 for `O=C(O)C(O)=CC(=O)c1sccc1Cc1ccc(F)cc1`
Output: 1.06

Input: Tell me log10 IC50 reported for `Cc1c(Cl)cccc1S(=O)(=O)Nc1cccc(C(=O)C=C(O)C(=O)O)c1`
Output: -0.54

Input: Tell me log10 IC50 reported for `N#Cc1ccccc1COc1cccc(C(=O)C=C(O)C(=O)O)c1`
Output: -0.64

Input: State its log10 IC50: `N#Cc1ccccc1COc1ccccc1C(=O)C=C(O)C(=O)O`
Output: 1.65

Input: Quick one: give measured log10 IC50 for `O=C(O)C(O)=CC(=O)c1ccsc1Cc1cccc(Cl)c1`
Output: 1.07

Input: Tell us which log10 IC50 value is on record for `O=C(O)C(O)=CC(=O)c1ccccc1Oc1ccc(Cl)cc1`
Output: 1.20

Input: Item `O=C(O)C(O)=CC(=O)c1cccc(Cc2ccc(Cl)cc2)c1` : provide log10 IC50
Output: 1.11

Input: Indicate the recorded log10 IC50 value for this molecule: `O=C(O)C(O)=CC(=O)c1cccc(OCc2ccc(Cl)c(Cl)c2)c1`
Output: 0.51

Input: Tell me measured log10 IC50 for `O=C(O)C(O)=CC(=O)c1cccc(NS(=O)(=O)c2cccc3ccccc23)c1` please.
Output: -0.17

Input: Answer with the recorded log10 IC50 of `O=C(O)C(O)=CC(=O)c1ccccc1/C=C/c1ccccc1` only.
Output: 1.03

Input: Output measured log10 IC50 for this item: `CC1(C(=O)C=C(O)C(=O)O)CC1`
Output: 0.97

Input: Give log10 IC50 for the following molecule: `COc1cccc(C(=O)C=C(O)C(=O)O)c1`
Output: 1.60

Input: Note log10 IC50 for the molecule shown: `O=C(O)C(O)=CC(=O)c1cccc(OCc2cccnc2)c1`
Output: 1.03

Input: Specify reported log10 IC50 for the molecule shown: `O=C(O)C(O)=CC(=O)c1ccc(Cl)s1`
Output: 1.08

====

Biological target: HCV RdRp (NS5B RNA-dependent RNA polymerase) (Hepatitis C virus genotype 1b)
Construct: The HCV NS5B protein is the viral RdRp; made in house; host or cells: insect cells infected with recombinant baculovirus
Experiment: Inhibition of hepatitis C virus RdRp (poly(A)/oligo(U), [3H]UTP incorporation)
Format: biochemical
Conditions: Tables I-VIII; 20 nM NS5B, 1 hour at 22° C.; read-out: IC 50 (μM), HCV-polymerase
Consider the following molecules; for each one, report its IC50.
Use µM as the unit, but write only the number.

Input: Return the recorded IC50 value; entry: `O=C(O)C(O)=CC(=O)c1sccc1Cc1cccc(F)c1`
Output: 9.9

Input: Quick one: give measured IC50 for `O=C(O)C(O)=CC(=O)c1cccc(OCc2ccccc2Br)c1`
Output: 3.3

Input: Input `O=C(O)C(O)=CC(=O)c1cccc(OCc2c(F)cccc2F)c1` , output reported IC50.
Output: 2.92

====

Target: HCV RdRp (NS5B RNA-dependent RNA polymerase) (Hepatitis C virus genotype 1b, UniProt P26663)
Construct: The HCV NS5B protein is the viral RdRp; made in house; host or cells: insect cells infected with recombinant baculovirus
Assay: Inhibition of hepatitis C virus RdRp (poly(A)/oligo(U), [3H]UTP incorporation)
Assay type: biochemical
Conditions: Tables I-VIII; 20 nM NS5B, 1 hour at 22° C.; read-out: IC 50 (μM), HCV-polymerase
I'd be grateful if you could share measured log10(IC50) for these entries.
Each number you see is log10 of IC50, and the unit inside the log is µM.

Input: Give the measured log10(IC50) for `CC(C)COc1ccccc1C(=O)C=C(O)C(=O)O`
Output: 0.79

Input: Specify log10(IC50) for `O=C(O)C(O)=CC(=O)c1cccn1CCCCOc1ccccc1` and stop.
Output: 1.45

Input: Note down log10(IC50) recorded for `N#CCCCOc1ccc(/C=C/c2ccccc2)cc1C(=O)C=C(O)C(=O)O`
Output: 0.32

Input: Please list log10(IC50) recorded for the compound `Cc1ccc(C(=O)C=C(O)C(=O)O)c(OCCCC#N)c1`
Output: -0.22

Input: Give the value of log10(IC50) reported for the following: `O=C(O)C(O)=CC(=O)c1cccc(OCc2ccccc2)c1`
Output: 0.90

Input: Could you please provide reported log10(IC50) for `O=C(O)C(O)=CC(=O)c1ccc(Cc2ccccc2)s1` ? Thanks!
Output: 1.83

====

Target: HCV RdRp (NS5B RNA-dependent RNA polymerase) (Hepatitis C virus genotype 1b, UniProt P26663)
Construct: The HCV NS5B protein is the viral RdRp; made in house; host or cells: insect cells infected with recombinant baculovirus
Test: Inhibition of hepatitis C virus RdRp (poly(A)/oligo(U), [3H]UTP incorporation)
Type: biochemical
Conditions: Tables I-VIII; 20 nM NS5B, 1 hour at 22° C.; read-out: IC 50 (μM), HCV-polymerase
Binary label based on IC50 with cut-off 20 µM: below gives Y, not below gives N.

Input: Here's an entry: O=C(O)C(O)=CC(=O)c1ccsc1Cc1cccc(F)c1 [Example 229] . Is its IC50 below 20 µM?
Output: N

Input: Strictly below 20 µM: is that where IC50 of O=C(O)C(O)=CC(=O)c1ccc(N2CCc3ccccc3C2)s1 [Example 215] sits?
Output: Y

Input: Take the compound O=C(O)C(O)=CC(=O)c1ccccc1SC1CCCCC1 [Example 33] and say whether its IC50 is less than 20 µM.
Output: Y

Input: Take the compound COc1cc(C)c(C#N)c(COc2cccc(C(=O)C=C(O)C(=O)O)c2)c1 [Example 111] and say whether its IC50 is less than 20 µM.
Output: Y

Input: Report whether reported IC50 is lower than 20 µM (strictly) for N#CC(CCOc1ccccc1C(=O)C=C(O)C(=O)O)(c1ccccc1)c1ccccc1 [Example 69]
Output: Y

Input: Below 20 µM on IC50? Entry CC(C)(C)OC(=O)Nc1cccc(C(=O)C=C(O)C(=O)O)c1 [Example 61]
Output: N

Input: Is the reported IC50 for CCCCCOc1ccccc1C(=O)C=C(O)C(=O)O [Example 59] strictly below 20 µM?
Output: N

Input: Is 20 µM strictly greater than the compound's reported IC50? compound: O=C(O)C(O)=CC(=O)c1cccc(NS(=O)(=O)c2cc(Cl)c(Oc3ccc([N+](=O)[O-])cc3Cl)c(Cl)c2)c1 [Example 135]
Output: N

Input: is_below(IC50, 20 µM) for O=C(O)C(O)=CC(=O)c1cccc(NS(=O)(=O)c2ccccc2Br)c1 [Example 77] ?
Output: Y

Input: Is IC50 of N#Cc1ccccc1S(=O)(=O)Nc1cccc(C(=O)C=C(O)C(=O)O)c1 [Example 72] strictly below 20 µM?
Output: Y

Input: Identify whether the compound N#CCCCOc1cccc(C(=O)C=C(O)C(=O)O)c1 [Example 13] records IC50 below 20 µM.
Output: Y

Input: Quick check: IC50 of O=C(O)C(O)=CC(=O)c1ccsc1Sc1cccc(Cl)c1 [Example 235] under 20 µM?
Output: Y

Input: Please determine if N#Cc1c(Cl)cc(Cl)cc1COc1cccc(C(=O)C=C(O)C(=O)O)c1 [Example 126] is below 20 µM in terms of IC50.
Output: Y

Input: A record lists O=C(O)C(O)=CC(=O)c1sccc1Cc1cccc(Cl)c1 [Example 212] . Is its IC50 below 20 µM?
Output: Y

Input: In plain terms, does N#CCCCOc1ccc(Cl)cc1C(=O)C=C(O)C(=O)O [Example 36] come in under 20 µM for IC50?
Output: Y

Input: IC50 under 20 µM? Item: N#Cc1c(Cl)cccc1COc1cccc(C(=O)C=C(O)C(=O)O)c1 [Example 109]
Output: Y

Input: Please let me know if O=C(O)C(O)=CC(=O)c1cccc(NS(=O)(=O)CCCCl)c1 [Example 134] shows IC50 below 20 µM.
Output: N

Input: Strictly below 20 µM: is that where IC50 of CC1=C(C(=O)C=C(O)C(=O)O)CCC1 [Example 255] sits?
Output: Y

Input: Item O=C(O)C(O)=CC(=O)c1cccc(NS(=O)(=O)c2ccc(Cl)s2)c1 [Example 102] : IC50 beneath 20 µM, strictly?
Output: Y

Input: Criterion: IC50 strictly below 20 µM. Is it met by O=C(O)C(O)=CC(=O)C1=CCCCC1 [Example 254] ?
Output: Y

Input: Dear reviewer, please state whether C=CCOc1ccccc1C(=O)C=C(O)C(=O)O [Example 16] has IC50 strictly beneath 20 µM.
Output: Y

Input: Below 20 µM on IC50? Entry Cn1cc(C(=O)C=C(O)C(=O)O)cc1Cc1cccc(F)c1 [Example 221]
Output: N

Input: Please determine if O=C(O)C(O)=CC(=O)c1cccc(NS(=O)(=O)Cc2ccccc2)c1 [Example 108] is below 20 µM in terms of IC50.
Output: Y

Input: Lab note: confirm whether the reported IC50 for this compound is below 20 µM, equality not counting. compound: CCCCS(=O)(=O)N1CCCC(Cc2ccc(Cl)cc2)(C(=O)C=C(O)C(=O)O)C1 (centres unmarked) [Example 245]
Output: N

Input: For O=C(O)C(O)=CC(=O)c1cccn1Cc1ccccc1 [Example 176] , is the recorded IC50 below the cut-off of 20 µM?
Output: N
